Ref: patent US9975888B2

What IC50 was measured for each of the following?
systemUnderTest: CYP3A4 (Homo sapiens, UniProt P08684)
Sequence (P08684 whole entry): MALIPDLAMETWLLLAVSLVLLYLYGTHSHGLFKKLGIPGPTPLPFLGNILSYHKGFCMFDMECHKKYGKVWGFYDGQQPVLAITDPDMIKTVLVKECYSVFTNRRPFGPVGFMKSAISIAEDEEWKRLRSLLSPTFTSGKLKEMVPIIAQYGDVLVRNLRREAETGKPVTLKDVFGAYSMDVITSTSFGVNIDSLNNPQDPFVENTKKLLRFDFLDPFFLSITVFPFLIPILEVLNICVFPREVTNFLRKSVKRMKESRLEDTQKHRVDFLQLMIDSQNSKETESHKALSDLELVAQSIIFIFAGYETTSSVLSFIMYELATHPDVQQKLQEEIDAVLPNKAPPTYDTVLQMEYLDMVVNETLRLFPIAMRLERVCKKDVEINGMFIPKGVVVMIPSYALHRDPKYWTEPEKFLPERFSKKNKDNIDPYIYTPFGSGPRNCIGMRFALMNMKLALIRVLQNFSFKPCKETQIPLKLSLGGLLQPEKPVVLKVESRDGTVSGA
experimentalDetails: Cocktail assay for CYPs, midazolam 1′-hydroxylation (CYP3A4), human liver microsomes
Type: biochemical
Parameters: 0.1 mg/mL protein human liver microsomes (BD Gentest); tissue BD Gentest; host or cells: human liver microsomes
conditionLabel: 2 μM midazolam, 0.1 mg/mL human liver microsomes, 10 min at 37° C.; read-out: CYP IC50 (nM) 3A4 (MDZ)

Check the records and state IC50 for CS(=O)(=O)N1CCCC1c1cccc(-c2cncn2CCc2ccc(F)cc2)c1 (stereo not shown) [Compound 51]
22.6 nM

Check the records and state IC50 for O=S(=O)(c1ccc(N2CCN(CCO)CC2)nc1)N1CCCC1c1ccccc1-c1cncn1CCc1ccc(F)cc1 (single isomer, unassigned) [Compound 35a]
8.1 nM

Check the records and state IC50 for CC(c1ccccc1-c1cncn1CCc1ccc(F)cc1)N(C)S(=O)(=O)c1cnc(N2CCN(C)CC2)s1 (stereo not shown) [Compound 4]
12 nM

Check the records and state IC50 for O=S(=O)(NCc1ccccc1-c1cncn1CCc1ccc(F)cc1)c1cnc(N2CCN3C[C@H](O)C[C@H]3C2)s1 [Compound 19]
9.5 nM

Check the records and state IC50 for CN1CCN(c2ncc(S(=O)(=O)N3CCc4c(ncnc4-c4cncn4CCc4ccc(F)cc4)C3)s2)CC1 [Compound 67]
123 nM

Check the records and state IC50 for CC(=O)Nc1ncc(S(=O)(=O)NCc2cccc(-c3cncn3CCc3ccc(F)cc3)c2)s1 [Compound 13]
5.9 nM

Check the records and state IC50 for CC(=O)Nc1ncc(S(=O)(=O)NC(C)(C)c2ccccc2-c2cncn2CCc2ccc(F)cc2)s1 [Compound 7]
22.9 nM
